Target: HCV p7 (Hepatitis C virus genotype 1a)
Construct: expressed in transfected cells
Sequence (P27958 747-809): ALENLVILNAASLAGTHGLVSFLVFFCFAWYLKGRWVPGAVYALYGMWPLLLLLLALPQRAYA
Assay: Bacterial bioassay, HCV p7
Format: cell-based
Parameters: scale not given here
Details: mean bacterial bioassay score; p7 of HCV
measurementLabel: Average Bacterial Assay Score, HCV p7
When you answer, write just the number.

INSERT INTO measurements (molecule, targetdesc, measurementlabel, observed) VALUES
  ('N=C(N)NC(=O)/C=C/c1cccc2c1OCO2 [BIT217, 2,3-methylenedioxycinnamoyl guanidine]', 'HCV p7 (Hepatitis C virus genotype 1a)', 'Average Bacterial Assay Score, HCV p7', 1.0),
  ('N=C(N)NC(=O)/C=C/c1cccc(C(=O)c2ccccc2)c1 [BIT216, (3-benzoyl)cinnamoylguanidine]', 'HCV p7 (Hepatitis C virus genotype 1a)', 'Average Bacterial Assay Score, HCV p7', 1.3),
  ('CC(=O)Nc1ccc(-c2cccc3cc(C(=O)NC(=N)N)ccc23)cc1 [BIT317]', 'HCV p7 (Hepatitis C virus genotype 1a)', 'Average Bacterial Assay Score, HCV p7', 0.20),
  ('COc1ccc2cc(C(=O)NC(=N)N)ccc2c1Br [BIT223, 5-bromo-6-methoxy-2-napthoylguanidine]', 'HCV p7 (Hepatitis C virus genotype 1a)', 'Average Bacterial Assay Score, HCV p7', 0.0),
  ('N=C(N)NC(=O)c1ccc2c(Br)cccc2c1 [BIT303, (5-bromo-2-napthoyl)guanidine]', 'HCV p7 (Hepatitis C virus genotype 1a)', 'Average Bacterial Assay Score, HCV p7', 0.00),
  ('N=C(N)NC(=O)c1ccc2c(-c3ccoc3)cccc2c1 [BIT311, (5-(3-furyl)-2-napthoyl)guanidine]', 'HCV p7 (Hepatitis C virus genotype 1a)', 'Average Bacterial Assay Score, HCV p7', 0.42),
  ('CC(C)Cn1cc(-c2cccc3cc(C(=O)NC(=N)N)ccc23)cn1 [BIT310]', 'HCV p7 (Hepatitis C virus genotype 1a)', 'Average Bacterial Assay Score, HCV p7', 0.00),
  ('N=C(N)NC(=O)C=Cc1ccc(Cl)c(Cl)c1 [BIT300, 3,4-dichlorocinnamoyl guanidine]', 'HCV p7 (Hepatitis C virus genotype 1a)', 'Average Bacterial Assay Score, HCV p7', 0.67);

Prompt: So what does the record say about Average Bacterial Assay Score, HCV p7 for Cc1ccc2cc(C(=O)NC(=N)N)ccc2c1 [BIT306, (6-methyl-2-napthoyl)guanidine] ?
Completion: 0.25

Prompt: So what does the record say about Average Bacterial Assay Score, HCV p7 for N=C(N)NC(=O)c1ccc2cc(-c3ccsc3)ccc2c1 [BIT305, (6-(3-thienyl)-2-napthoyl)guanidine] ?
Completion: 0.00

Prompt: So what does the record say about Average Bacterial Assay Score, HCV p7 for CS(=O)(=O)Nc1ccc(-c2cccc3cc(C(=O)NC(=N)N)ccc23)cc1 [BIT319] ?
Completion: 0.00

Prompt: So what does the record say about Average Bacterial Assay Score, HCV p7 for COc1c(C(=O)NC(=N)N)ccc2ccccc12 [BIT301, (1-methoxy-2-napthoyl)guanidine] ?
Completion: 0.25

Prompt: So what does the record say about Average Bacterial Assay Score, HCV p7 for COc1cc2ccccc2cc1C(=O)NC(=N)N [BIT302, (3-methoxy-2-napthoyl)guanidine] ?
Completion: 0.42

Prompt: So what does the record say about Average Bacterial Assay Score, HCV p7 for Cn1cc(-c2cccc3cc(C(=O)NC(=N)N)ccc23)cn1 [BIT225] ?
Completion: 1.2

Prompt: So what does the record say about Average Bacterial Assay Score, HCV p7 for N=C(N)NC(=O)c1ccc2c(-c3ccsc3)cccc2c1 [BIT224, 5-thiophen-3-yl-2-naphthoylguanidine] ?
Completion: 1.1

Prompt: So what does the record say about Average Bacterial Assay Score, HCV p7 for N=C(N)NC(=O)c1ccc2c(-c3ccccc3)cccc2c1 [BIT307, (5-phenyl-2-napthoyl)guanidine] ?
Completion: 0.08

These measurements were taken from patent US9440926B2.
